B1: tRNA (parent)
chain: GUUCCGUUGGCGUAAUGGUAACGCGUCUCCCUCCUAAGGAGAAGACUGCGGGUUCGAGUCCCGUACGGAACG

- Variants of: B1
- procedure details: yeast fitness relative to wild type (ratio to wild type); higher = fitter; tRNA-Arg(CCU), competitive growth, 37 C, YPD
Variants at the floor of the assay were thinned out.
Answer each item with its documented yeast fitness.

Request the reported yeast fitness associated with C27U C61A A69U 0.551

Next variant: G9C A42G 0.673

Check U13A C27A A36C A42U U64G too. ≤ 0.5

Same question for C27A C60U C61G A65G please. 0.598

Another variant to look at: G12U C30G ≤ 0.5

Next variant: G12C U16C U28A C60U ≤ 0.5

Please do the same for A14G G25A C30A A57U as well. 0.607

Please answer likewise for G52U C55A 0.555

Now the same for C4A C27U G39C 0.632

Now give it for U2A C5U C31A C62U too. ≤ 0.5

What do you get for U28C A43C ? 0.758

Similarly, U3A G9A A37G G68C A69G ? ≤ 0.5

Similarly, G25C C66U ? 0.972

Okay, and A20G C24A C27A A69C ? 0.591

Would you mind doing C29G C31A U35C G67A as well? ≤ 0.5

What do you have for U8G G17A A70C ? ≤ 0.5

Same read-out for C5U C24A G67C ? 0.547

Continue with A15G U53A C55A U64G 0.571

What do you get for A15U U19A A20G G41A C60G A65G ? ≤ 0.5

And for U8C A15C ? 0.848

// query: C27U G41A G58C A69C 0.645

Field entry: A15C C33G A42C A45C ≤ 0.5

Lookup G12A A21G C46G G51A A69U ≤ 0.5

Thanks! And G56A U59C A65C A70G ? 0.568

And for C34U A37U G41A G50C ? ≤ 0.5

Record: U3G A20C 0.987

Follow-up entry: A20U G50A C60G ≤ 0.5

Same question, G9C C49U A57G this time 0.615

// query: U3A G9C 0.567

How about this variant: G10C A14U U19A C22U C62A ≤ 0.5

Then what about the variant U7G C24A C46G U59C C62G ? ≤ 0.5

Continue with G51A G58C 0.901

Try this variant next: G39C A42C C62U A69C ≤ 0.5

Same question, A15G C27G A70U this time 0.543

And C30U A45U A57C ? 0.566

Follow-up item: U19A C22U A40U G51C C66U A70G ≤ 0.5

Queued: U47C C49G 0.909

Try this variant next: C31A G51A 0.603

Input C30A C34G G50A C62U C66A ≤ 0.5

Also C4U U13C ? 0.884

# repeat for G10A U13A C24U A45C A65G C66G ≤ 0.5

Could you do the same for C5U C11U A69U , please? 0.734

// repeat for C4G G17A C55G A70U and report ≤ 0.5

Next: U8A C24U A40C A42C A45U ≤ 0.5

Try this variant next: G10A U26C G56A 0.542

And then C29G C62U G68A , what is it? 0.542

Another variant to check: U19A G41A A42G G58U G63C ≤ 0.5

What about U26A U54A ? 0.589

Proceed to U2C C31G C55G 0.569

Subsequent entry: G18C A20G C30A ≤ 0.5

For C5U A20U G50A U59C then? 0.544

Follow-up entry: A21C C27A C33U 0.906

Next record, please: C4G G12U A14C U16C C49U A65G ≤ 0.5

Query C5G C22U U26G U32A U35A A69C next ≤ 0.5

Here is the next variant: C11G C29G C33U C46A C49G G68C ≤ 0.5

What do we get for C4U C31G C34U A43U ? 0.786

Next variant: C5G C49A U64C 0.621

// query: U3C C27G C49A ≤ 0.5

Thanks! And G25C C31A A69C ? 0.585

What do we get for A42U G58C ? 0.924

Moving on to the next variant: C5U C22G A69C 0.691

G6C U8C A42G C46U C55G A65U , same question. ≤ 0.5

Repeat for the following variant: C5U G17C C27U A65G ≤ 0.5

Now the variant U3A C5G U13G G39C A70C ≤ 0.5

Repeat with C30A A65U A69C 0.692

And then U2A G9C G50A U64A , what is it? ≤ 0.5

Further, for C5U C24A C55A A65G ? ≤ 0.5

// next record U3C G58C 0.97

Same read-out for G10C C22U U26A C49U A65U ? ≤ 0.5

Request: U26A A40C C66A ≤ 0.5

Please answer likewise for U3A G9A U19A G44C G68C ≤ 0.5

Record: A20G C22A A37C A65G ≤ 0.5

Now consider U7G A37G and answer again. 0.633

How about A15U C27U G48C ? 0.587

And G6C C22A C31G C49G G68C ? ≤ 0.5

Another variant: C33U A43U C49G G50C C60G ≤ 0.5

Now this one: C4U C5G C34U U54A ≤ 0.5

Same thing, different variant: C5U A20C G23C C24U C31U U64C ≤ 0.5

Entry to check: U13A A20G C24U U59C ≤ 0.5

For U8C C11A G18C C27G then? ≤ 0.5

Repeat with C27G C55A G58A ≤ 0.5

Also U7C C46U C61A G63U G67A ? ≤ 0.5

One more variant: G12C C49U U53C C60G ≤ 0.5

Can you check C34G A40U U47A G67C next? ≤ 0.5

How about A21U C55A A65C ? ≤ 0.5

Entry C46A U64A A65C please 0.978

Try U8C G51C G58C next. ≤ 0.5

Note, next up: G10C C11G 0.682

Again, but for C27G A45U G56C 0.531

Param item: U3C A20C G23C ≤ 0.5

Record: A15C G17A A42U ≤ 0.5

Origin of values: the RNAGym collection of RNA variant scans (doi:10.1126/science.aae0568)
